# Study system: VIM-1 (Pseudomonas aeruginosa (strain ATCC 15692 / DSM 22644 / CIP 104116 / JCM 14847 / LMG 12228 / 1C / PRS 101 / PAO1), UniProt A0A0F7KYQ8)
# Assay info: biochemical
# Condition: VIM-1 IC50, fluorescence assay, CCF2-FA substrate, 30 pM enzyme, 2 hours at 25° C.
pIC50: −log10 of the molar value.
Entries and their pIC50 values follow.
Observed property: pIC50

[[record]]
compound = "CC(N)CNS(=O)(=O)c1ccc(-c2cccc3sc(N)nc23)c(-c2nnn[nH]2)c1S(N)(=O)=O.O=C(O)C(F)(F)F (stereo not drawn) [Example 109, 2,2,2-trifluoroacetate]"
measurement = 9.49

[[record]]
compound = "NCc1nc2c(-c3ccc(S(=O)(=O)NC[C@@H](O)CN)c(S(N)(=O)=O)c3-c3nn[nH]n3)cccc2s1 [Example 306]"
measurement = 10.25

[[record]]
compound = "Nc1nc2c(-c3ccc(S(=O)(=O)N[C@@H]4CNC[C@H]4O)c(S(N)(=O)=O)c3-c3nnn[nH]3)cccc2[nH]1 [Example 171]"
measurement = 9.30

[[record]]
compound = "Nc1nc2c(-c3ccc(S(=O)(=O)NCC4(F)CNC4)c(S(N)(=O)=O)c3-c3nnn[nH]3)cccc2s1.O=CO [Example 91, formate]"
measurement = 9.49

[[record]]
compound = "Nc1nc2c(-c3ccc(S(=O)(=O)NC[C@@H]4CCNC4)c(S(N)(=O)=O)c3-c3nnn[nH]3)cccc2s1 [Example 75]"
measurement = 9.94

[[record]]
compound = "Nc1nc2c(-c3ccc(S(=O)(=O)NC[C@@]4(N)CCNC4)c(S(N)(=O)=O)c3-c3nn[nH]n3)cccc2s1 [Example 367]"
measurement = 10.01


====

# System: Pseudomonas aeruginosa MB9798 vs MB9799
# Condition: ratio MITC95 PA_9798/MITC95 PA_9799
Listed below: Efflux ratio values for each entry.
Observed property: Efflux ratio

[[record]]
compound = "NC(=O)c1nc2c(-c3ccc(S(=O)(=O)N[C@@H]4CCNC4)c(S(N)(=O)=O)c3-c3nn[nH]n3)cccc2[nH]1 [Example 271]"
observed_property = "Efflux ratio"
measurement = 0.50

[[record]]
compound = "Nc1ccc(-c2ccc(S(=O)(=O)NC[C@H]3CNCCN3)c(S(N)(=O)=O)c2-c2nn[nH]n2)cn1 [Example 315]"
observed_property = "Efflux ratio"
measurement = 1.00

[[record]]
compound = "C[N+]1(C)CC[C@H](NS(=O)(=O)c2ccc(-c3cccc4[nH]c(N)nc34)c(-c3nn[n-]n3)c2S(N)(=O)=O)C1 [Example 166]"
observed_property = "Efflux ratio"
measurement = 1.00

[[record]]
compound = "N[C@@H]1CNC[C@@H]1NS(=O)(=O)c1ccc(-c2cccn3ccnc23)c(-c2nn[nH]n2)c1S(N)(=O)=O [Example 328]"
observed_property = "Efflux ratio"
measurement = 1.00

[[record]]
compound = "NCCNS(=O)(=O)c1ccc(-c2cccc3[nH]c([C@@H](N)CN)nc23)c(-c2nn[nH]n2)c1S(N)(=O)=O [Example 336]"
observed_property = "Efflux ratio"
measurement = 2.00

[[record]]
compound = "NCCNS(=O)(=O)c1ccc(-c2cccc(NC[C@@H](N)CO)c2)c(-c2nn[nH]n2)c1S(N)(=O)=O [Example 349]"
observed_property = "Efflux ratio"
measurement = 2.00

[[record]]
compound = "NCCNS(=O)(=O)c1ccc(-c2cccc3oc(N)nc23)c(-c2nn[nH]n2)c1S(N)(=O)=O [Example 11]"
observed_property = "Efflux ratio"
measurement = 1.00

[[record]]
compound = "Cn1cnc(CNS(=O)(=O)c2ccc(-c3cccc4sc(N)nc34)c(-c3nnn[nH]3)c2S(N)(=O)=O)n1 [Example 20]"
observed_property = "Efflux ratio"
measurement = 1.00

[[record]]
compound = "Nc1nc2c(-c3ccc(S(=O)(=O)NCCN4CCNC(=O)C4)c(S(N)(=O)=O)c3-c3nnn[nH]3)cccc2s1 [Example 15]"
observed_property = "Efflux ratio"
measurement = 1.00

[[record]]
compound = "CC(CN)NS(=O)(=O)c1ccc(-c2cccc3sc(N)nc23)c(-c2nnn[nH]2)c1S(N)(=O)=O.O=CO (centres unmarked) [Example 116]"
observed_property = "Efflux ratio"
measurement = 0.50

[[record]]
compound = "NC[C@H](CO)NS(=O)(=O)c1ccc(-c2cccc(N)n2)c(-c2nn[nH]n2)c1S(N)(=O)=O [Example 364]"
observed_property = "Efflux ratio"
measurement = 2.00

[[record]]
compound = "NCc1nc2c(-c3ccc(S(=O)(=O)NC[C@H](O)CN)c(S(N)(=O)=O)c3-c3nn[nH]n3)cccc2s1 [Example 300]"
observed_property = "Efflux ratio"
measurement = 1.00

[[record]]
compound = "NCCCNC(=O)c1cccc(-c2ccc(S(=O)(=O)NCCN)c(S(N)(=O)=O)c2-c2nn[nH]n2)c1 [Example 341]"
observed_property = "Efflux ratio"
measurement = 2.00

[[record]]
compound = "NCCNS(=O)(=O)c1ccc(-c2cccc(-c3c[nH]c(N)n3)c2)c(-c2nn[nH]n2)c1S(N)(=O)=O [Example 353]"
observed_property = "Efflux ratio"
measurement = 2.00


====

# Study system: VIM-1 (Pseudomonas aeruginosa (strain ATCC 15692 / DSM 22644 / CIP 104116 / JCM 14847 / LMG 12228 / 1C / PRS 101 / PAO1))
# Assay info: biochemical
# Condition: fluorescence assay, CCF2-FA substrate, 30 pM enzyme, 2 hours at 25° C.; read-out: VIM-1 IC50
pIC50: −log10 of the molar value.
Some molecules, each annotated with its measured pIC50.
Observed property: pIC50

[[record]]
molecule = "NCCN1CC[C@@H](NS(=O)(=O)c2ccc(-c3ccc(N)nc3)c(-c3nn[nH]n3)c2S(N)(=O)=O)C1 [Example 500]"
measurement = 10.15

[[record]]
molecule = "NCC(CN)NS(=O)(=O)c1ccc(-c2cccc3ccc(N)nc23)c(-c2nn[nH]n2)c1S(N)(=O)=O [Example 430]"
measurement = 9.99

[[record]]
molecule = "Nc1nc2c(-c3ccc(S(=O)(=O)NC4CNC4)c(S(N)(=O)=O)c3-c3nn[nH]n3)cccc2s1 [Example 146]"
measurement = 9.65

[[record]]
molecule = "CN([C@H]1CCNC1)S(=O)(=O)c1ccc(-c2cccc3[nH]c(N)nc23)c(-c2nn[nH]n2)c1S(N)(=O)=O [Example 244]"
measurement = 8.17

[[record]]
molecule = "NCC(CN)NS(=O)(=O)c1ccc(-c2cccc3sc(N)nc23)c(-c2nn[nH]n2)c1S(N)(=O)=O [Example 436]"
measurement = 9.94

[[record]]
molecule = "CC(CN1CCOCC1)NS(=O)(=O)c1ccc(-c2cccc3sc(N)nc23)c(-c2nnn[nH]2)c1S(N)(=O)=O (centres unmarked) [Example 51]"
measurement = 9.36

[[record]]
molecule = "NS(=O)(=O)c1c(S(=O)(=O)N[C@H]2C[C@H](N)C2)ccc(-c2cccc3[nH]cnc23)c1-c1nn[nH]n1 [Example 200]"
measurement = 9.94

[[record]]
molecule = "NS(=O)(=O)c1c(S(=O)(=O)N[C@@H]2CCNC2)ccc(-c2cccc(Nc3nc(CO)cs3)c2)c1-c1nn[nH]n1 [Example 470]"
measurement = 9.96

[[record]]
molecule = "Nc1nc2c(-c3ccc(S(=O)(=O)N[C@@H]4CCCNC4)c(S(N)(=O)=O)c3-c3nnn[nH]3)cccc2[nH]1 [Example 178]"
measurement = 9.57

[[record]]
molecule = "NCCNc1ncccc1-c1ccc(S(=O)(=O)N[C@@H]2CCNC2)c(S(N)(=O)=O)c1-c1nn[nH]n1 [Example 459]"
measurement = 9.77

[[record]]
molecule = "NCCNS(=O)(=O)c1ccc(-c2cccc3[nH]nnc23)c(-c2nn[nH]n2)c1S(N)(=O)=O [Example 236]"
measurement = 9.89

[[record]]
molecule = "NCCNS(=O)(=O)c1ccc(-c2cccc(C(=O)NC[C@H](N)CO)c2N)c(-c2nn[nH]n2)c1S(N)(=O)=O [Example 333]"
measurement = 9.33

[[record]]
molecule = "C[C@H](CN)NS(=O)(=O)c1ccc(-c2cccnc2NCCN)c(-c2nn[nH]n2)c1S(N)(=O)=O [Example 460]"
measurement = 9.83

[[record]]
molecule = "COCCNS(=O)(=O)c1ccc(-c2cccc3sc(N)nc23)c(-c2nnn[nH]2)c1S(N)(=O)=O [Example 24]"
measurement = 9.69


====

# Study system: NDM-1 (Klebsiella pneumoniae)
# Sequence (C7C422 whole entry, looked up, species assumed): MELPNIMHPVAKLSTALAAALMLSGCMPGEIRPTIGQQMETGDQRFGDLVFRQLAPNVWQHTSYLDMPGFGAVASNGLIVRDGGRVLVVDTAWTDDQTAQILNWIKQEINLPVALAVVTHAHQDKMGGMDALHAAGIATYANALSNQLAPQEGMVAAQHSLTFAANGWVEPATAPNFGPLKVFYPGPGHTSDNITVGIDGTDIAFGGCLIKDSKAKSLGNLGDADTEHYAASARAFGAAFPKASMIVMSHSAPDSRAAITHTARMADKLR
# Assay info: biochemical
# Format: biochemical
# Condition: fluorescence assay, CCF2-FA substrate, 1 pM enzyme, 2 hours at 25° C.; read-out: NDM-1 IC50
pIC50: −log10 of the molar value.
Observed property: pIC50

[[record]]
compound = "Nc1nc2c(-c3ccc(S(=O)(=O)NC[C@@H]4CCNC4)c(S(N)(=O)=O)c3-c3nn[nH]n3)cccc2[nH]1 [Example 263]"
study_system = "NDM-1 (Klebsiella pneumoniae)"
measurement = 10.34

[[record]]
compound = "N=C(N)c1nc2c(-c3ccc(S(N)(=O)=O)c(S(N)(=O)=O)c3-c3nn[nH]n3)cccc2s1 [Example 192]"
study_system = "NDM-1 (Klebsiella pneumoniae)"
measurement = 9.56

[[record]]
compound = "Nc1nc2c(-c3ccc(S(=O)(=O)NCC4COCCN4)c(S(N)(=O)=O)c3-c3nn[nH]n3)cccc2[nH]1 (stereo not shown) [Example 206]"
study_system = "NDM-1 (Klebsiella pneumoniae)"
measurement = 10.14

[[record]]
compound = "NCCNS(=O)(=O)c1ccc(-c2cccc(C(=O)N[C@@H]3CNC[C@H]3O)c2)c(-c2nn[nH]n2)c1S(N)(=O)=O [Example 344]"
study_system = "NDM-1 (Klebsiella pneumoniae)"
measurement = 8.86

[[record]]
compound = "NC[C@@H](O)CNS(=O)(=O)c1ccc(-c2ccc(N)nc2)c(-c2nn[nH]n2)c1S(N)(=O)=O [Example 303]"
study_system = "NDM-1 (Klebsiella pneumoniae)"
measurement = 9.59

[[record]]
compound = "NCCNS(=O)(=O)c1ccc(-c2cccnc2N)c(-c2nn[nH]n2)c1S(N)(=O)=O [Example 358]"
study_system = "NDM-1 (Klebsiella pneumoniae)"
measurement = 9.50

[[record]]
compound = "Nc1nc2c(-c3ccc(S(=O)(=O)N[C@H]4CN[C@H](CO)C4)c(S(N)(=O)=O)c3-c3nnn[nH]3)cccc2[nH]1 [Example 172]"
study_system = "NDM-1 (Klebsiella pneumoniae)"
measurement = 10.30

